experiment: Inhibition of Staphylococcus aureus thymidylate kinase
pIC50: −log10 of the molar value.
The label depends only on pIC50: condition met if it is at least 8, condition not met if it is smaller.

molecular.string: Cc1cn([C@H]2CCCN(S(=O)(=O)c3ccc(O)c(Oc4cccc(C(F)(F)F)c4)c3)C2)c(=O)[nH]c1=O
answer.label: condition not met
--
molecular.string: Cc1cn([C@H]2CCCN(S(=O)(=O)c3ccc(C(=O)O)c(Oc4ccc(Cl)c(Cl)c4)c3)C2)c(=O)[nH]c1=O
answer.label: condition not met
--
molecular.string: Cc1cn([C@H]2CCCN(S(=O)(=O)c3ccc(O)c(Oc4ccc(Cl)cc4)c3)C2)c(=O)[nH]c1=O
answer.label: condition not met
--
molecular.string: Cc1cn([C@H]2CCCN(S(=O)(=O)c3ccc(O)c(Oc4cccc(F)c4)c3)C2)c(=O)[nH]c1=O
answer.label: condition not met
--
molecular.string: Cc1cn([C@H]2CCCN(S(=O)(=O)c3ccc(O)c(Oc4cccc(Br)c4)c3)C2)c(=O)[nH]c1=O
answer.label: condition met
--
molecular.string: Cc1cn([C@H]2CCCN(S(=O)(=O)c3ccc(C(=O)O)c(Oc4cccc(Cl)c4)c3)C2)c(=O)[nH]c1=O
answer.label: condition met
--
molecular.string: Cc1cc(Oc2cc(S(=O)(=O)N3CCC[C@H](n4cc(C)c(=O)[nH]c4=O)C3)ccc2O)ccc1Cl
answer.label: condition met
--
molecular.string: Cc1cn([C@H]2CCCN(S(=O)(=O)c3cccc(Oc4ccccc4)c3)C2)c(=O)[nH]c1=O
answer.label: condition not met
